experiment: Plasma pharmacokinetics of L-BTZ and Velcade in rats after single dose; format: in vivo; conditions: rat, iv, 0.6 mg/kg, 5 ul/g, plasma BTZ by LC-MS
readout_type: AUC(0-inf) (ng·h/mL)
One number for each entry, in ng·h/mL.

CC(C)C[C@H](NC(=O)[C@H](Cc1ccccc1)NC(=O)c1cnccn1)B(O)O [free BTZ, Bortezomib] yielded AUC(0-inf) of 864

* * *

assay: Plasma pharmacokinetics of L-BTZ and Velcade in rats after single dose; assay type: in vivo; conditions: rat, iv, 0.6 mg/kg, 5 ul/g, plasma BTZ by LC-MS
readout_type: AUC(0-t)

CC(C)C[C@H](NC(=O)[C@H](Cc1ccccc1)NC(=O)c1cnccn1)B(O)O [free BTZ, Bortezomib] yielded AUC(0-t) of 322 ng·h/mL

* * *

test: Plasma pharmacokinetics of L-BTZ and Velcade in rats after single dose; type: in vivo; conditions: rat, iv, 0.6 mg/kg, 5 ul/g, plasma BTZ by LC-MS
readout_type: half-life (h)
Numbers only, in h.

CC(C)C[C@H](NC(=O)[C@H](Cc1ccccc1)NC(=O)c1cnccn1)B(O)O [free BTZ, Bortezomib] yielded half-life of 33.1

* * *

experiment: Plasma pharmacokinetics of L-BTZ and Velcade in rats after single dose; assay type: in vivo; conditions: rat, iv, 0.6 mg/kg, 5 ul/g, plasma BTZ by LC-MS
readout_type: Cmax (ng/mL)
Answers are plain numbers, in ng/mL.

CC(C)C[C@H](NC(=O)[C@H](Cc1ccccc1)NC(=O)c1cnccn1)B(O)O [free BTZ, Bortezomib] yielded Cmax of 45.4
